molecular target: T1, human CCR8 (human, UniProt P51685 1-355); experiment: flow blocking, PBMC CCR8+CD4+; competitor PE-AB13
T1 construct: Native CCR8 on human PBMC (CCR8+ CD3+ or CCR8+ CD4+ lymphocytes); also called chemokine (C-C motif) receptor 8
T1 sequence (P51685 whole entry): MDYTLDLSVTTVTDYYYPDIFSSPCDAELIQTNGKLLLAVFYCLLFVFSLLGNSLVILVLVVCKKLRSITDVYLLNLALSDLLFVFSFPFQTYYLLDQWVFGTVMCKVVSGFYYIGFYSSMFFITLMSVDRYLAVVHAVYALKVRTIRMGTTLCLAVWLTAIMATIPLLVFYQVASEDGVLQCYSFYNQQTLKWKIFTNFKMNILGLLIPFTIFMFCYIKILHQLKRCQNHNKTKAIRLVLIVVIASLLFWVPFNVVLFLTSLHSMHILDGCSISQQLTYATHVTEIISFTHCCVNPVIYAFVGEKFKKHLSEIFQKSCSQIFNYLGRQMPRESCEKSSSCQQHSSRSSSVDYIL
% Positive cells by entry:
Give your result in % as a bare value.

Some binders with known % Positive cells results, for comparison:
BINDER	% Positive cells (%)
AB3 (antibody, V domains shown, Hybridoma monoclonal; also called antibody 3; clone 3) VH: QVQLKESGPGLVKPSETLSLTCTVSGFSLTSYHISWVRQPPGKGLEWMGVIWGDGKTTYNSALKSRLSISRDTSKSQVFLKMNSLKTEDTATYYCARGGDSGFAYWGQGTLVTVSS VL: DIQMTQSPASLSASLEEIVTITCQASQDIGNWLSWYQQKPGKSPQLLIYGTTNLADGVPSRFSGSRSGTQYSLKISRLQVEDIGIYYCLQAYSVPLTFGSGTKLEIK	1.56
AB2 (antibody, V domains shown, Hybridoma monoclonal; Same VH/VL entries as AB1; also called antibody 2; clone 2) VH: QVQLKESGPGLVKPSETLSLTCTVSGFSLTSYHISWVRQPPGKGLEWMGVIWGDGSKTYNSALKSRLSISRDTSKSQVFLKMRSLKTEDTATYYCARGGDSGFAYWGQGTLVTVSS VL: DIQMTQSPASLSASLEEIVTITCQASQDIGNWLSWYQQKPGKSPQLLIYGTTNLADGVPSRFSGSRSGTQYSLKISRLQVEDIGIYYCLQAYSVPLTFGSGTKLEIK	2.1

Turning now to a further record.
Query AB1 (antibody, V domains shown, Hybridoma monoclonal (mouse or rat); Same VH/VL entries as AB2; also called antibody 1; clone 1) VH: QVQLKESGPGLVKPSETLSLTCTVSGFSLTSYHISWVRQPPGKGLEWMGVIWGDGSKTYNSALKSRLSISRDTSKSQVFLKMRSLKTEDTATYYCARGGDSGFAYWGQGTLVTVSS VL: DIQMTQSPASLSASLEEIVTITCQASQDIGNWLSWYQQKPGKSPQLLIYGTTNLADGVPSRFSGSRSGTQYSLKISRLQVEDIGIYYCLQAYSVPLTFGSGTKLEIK yields % Positive cells of 1.78
